Entries and their measured Activity follow.
test system: MCF7; experiment: Effect on glutathione peroxidase level in human MCF7 cells assessed per mg protein at 20 ug/ml after 24 hrs (reference value: 11.20 +/- 1.36 U/mg of protein); format: functional
The reply should be a number in U/mg protein, with the unit left off.

Illustrative cases are given below, each with its answer.
mol.smiles | unit.symbol | numeric.readout
Cc1nc(-n2ncc3c(Cl)ncnc32)c2c3c(sc2n1)CCc1ccccc1-3 | U/mg protein | 6.7
Cc1nc(-n2ncc3c(S[C@@H]4O[C@H](CO)[C@@H](O)[C@H]4O)ncnc32)c2c3c(sc2n1)CCc1ccccc1-3 | U/mg protein | 5.4
Cc1nc(-n2ncc3c(=S)[nH]cnc32)c2c3c(sc2n1)CCc1ccccc1-3 | U/mg protein | 6.82
Cc1nc(-n2ncc3c(=O)[nH]cnc32)c2c3c(sc2n1)CCc1ccccc1-3 | U/mg protein | 2.65
CCOCCSc1ncnc2c1cnn2-c1nc(C)nc2sc3c(c12)-c1ccccc1CC3 | U/mg protein | 5.25

Sure, the documented Activity for COCCSc1ncnc2c1cnn2-c1nc(C)nc2sc3c(c12)-c1ccccc1CC3 is 2.9

Sure, the documented Activity for CCSc1ncnc2c1cnn2-c1nc(C)nc2sc3c(c12)-c1ccccc1CC3 is 2.2

====

test system: MCF7; assay: Effect on hydrogen peroxide level in human MCF7 cells assessed per mg protein at 20 ug/ml by Wolf's method after 24 hrs (reference value: 12.50 +/- 1.54 nmol/mg of protein); assay type: functional
# cutoff 60 nmol applies to Activity; >= gives Y, < gives N

mol.smiles | class.assignment
CCOCCSc1ncnc2c1cnn2-c1nc(C)nc2sc3c(c12)-c1ccccc1CC3 | N

Prompt line: Please indicate if the recorded Activity for Cc1nc(-n2ncc3c(=S)[nH]cnc32)c2c3c(sc2n1)CCc1ccccc1-3 meets or exceeds 60 nmol.
Response line: N

Prompt line: Please indicate if the recorded Activity for Cc1nc(-n2ncc3c(Cl)ncnc32)c2c3c(sc2n1)CCc1ccccc1-3 meets or exceeds 60 nmol.
Response line: N

Prompt line: Please indicate if the recorded Activity for COCCSc1ncnc2c1cnn2-c1nc(C)nc2sc3c(c12)-c1ccccc1CC3 meets or exceeds 60 nmol.
Response line: Y

Prompt line: Please indicate if the recorded Activity for Cc1nc(-n2ncc3c(S[C@@H]4O[C@H](CO)[C@@H](O)[C@H]4O)ncnc32)c2c3c(sc2n1)CCc1ccccc1-3 meets or exceeds 60 nmol.
Response line: N

Prompt line: Please indicate if the recorded Activity for CCSc1ncnc2c1cnn2-c1nc(C)nc2sc3c(c12)-c1ccccc1CC3 meets or exceeds 60 nmol.
Response line: Y

====

Entries and their measured Activity follow.
tested on: MCF7; test: Effect on hydrogen peroxide level in human MCF7 cells assessed per mg protein at 5 ug/ml by Wolf's method after 24 hrs (reference value: 12.50 +/- 1.54 nmol/mg of protein); type: functional
The reply should be a number in nmol, with the unit left off.

mol.smiles | assay.target | unit.symbol | Activity
Cc1nc(-n2ncc3c(Cl)ncnc32)c2c3c(sc2n1)CCc1ccccc1-3 | MCF7 | nmol | 25.45
CCSc1ncnc2c1cnn2-c1nc(C)nc2sc3c(c12)-c1ccccc1CC3 | MCF7 | nmol | 55
COCCSc1ncnc2c1cnn2-c1nc(C)nc2sc3c(c12)-c1ccccc1CC3 | MCF7 | nmol | 45.77
Cc1nc(-n2ncc3c(S[C@@H]4O[C@H](CO)[C@@H](O)[C@H]4O)ncnc32)c2c3c(sc2n1)CCc1ccccc1-3 | MCF7 | nmol | 28.45

Sure, the documented Activity for Cc1nc(-n2ncc3c(=S)[nH]cnc32)c2c3c(sc2n1)CCc1ccccc1-3 is 21.6

Sure, the documented Activity for CCOCCSc1ncnc2c1cnn2-c1nc(C)nc2sc3c(c12)-c1ccccc1CC3 is 30.5

Sure, the documented Activity for Cc1nc(-n2ncc3c(=O)[nH]cnc32)c2c3c(sc2n1)CCc1ccccc1-3 is 40.6
